Assay details: NCI Yeast Anticancer Drug Screen. Data for the wt1 strain (AID 149);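 further: 0% = growth of vehicle-treated wt1 cultures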
Details: S. cerevisiae wt1 strain (SPY 50644) growth inhibition; at 1.2 µM
This is part of a sample that, as a whole, favours compounds with a hit. Of some 79,000 tested, about 15% had one in any assay. Active and inactive are the calls of the source. No stated cut-off is given here; in the data, active means growth inhibition above about 70%; inactive means the rest.
Classes used: YES for active, NO for inactive

Compound: CC(C)c1cc(C(C)C)c(O)c(C([O-])[O-])c1.CC(C)c1cc(C(C)C)c(O)c(C([O-])[O-])c1.CC(C)c1cc(C(C)C)c(O)c(C([OH2+])[OH2+])c1.CC(C)c1cc(C(C)C)c(O)c(C([OH2+])[OH2+])c1.[Cu+2].[Cu+2].[OH3+].[OH3+]
Answer label: NO
--
Compound: CNC1C(OC2C(OC3C(O)C(O)C(N=C(N)N)C(O)C3N=C(N)N)OC(C)C2(O)CO)OC(CO)C(O)C1O (stereo not given)
Answer label: NO
--
Compound: C[S+](C)C1(c2ccccc2)C(=O)c2ccccc2C1=O
Answer label: NO
--
Compound: CC(C)/C(Cl)=N\OC(=O)Nc1cccc(Cl)c1
Answer label: NO
--
Compound: OC1CCCc2c1cc1ccc3cccc4ccc2c1c34 (stereo not given)
Answer label: NO
--
Compound: Cc1ccc(NN(NC(=O)OC(C)C)C(=O)OC(C)C)cc1
Answer label: NO
--
Compound: O=C(Nc1ccccc1)C(=O)C(C(=O)c1ccccc1)C(c1ccccc1)c1ccccc1 (stereo not given)
Answer label: NO
--
Compound: CCCCCCCCCCC1CCC(=O)O1 (stereo not given)
Answer label: NO
--
Compound: O=C1OC(CCl)CN1/N=C/c1ccc([N+](=O)[O-])o1 (stereo not given)
Answer label: NO
--
Compound: CSC(=S)Nc1cccc(C)n1
Answer label: NO
--
Compound: COP(=O)(OC)/C(=C\C1=CN(C(c2ccccc2)(c2ccccc2)c2ccccc2)CN1)NC=O
Answer label: NO
--
Compound: COc1ccc(N=C2C(=O)Nc3ccc(Br)cc32)cc1
Answer label: NO
--
Compound: COc1ccc2nc3cccc([N+](=O)[O-])c3c(NCCN(CCO)CCO)c2c1
Answer label: NO
--
Compound: CCN(CC)CC(O)c1ccc2ccc3ccccc3c2c1 (stereo not given)
Answer label: NO
--
Compound: O=C(O)c1ccccc1NC(=S)c1ccccc1
Answer label: NO
--
Compound: C=CC(C)(O)CCC1C(=C)C(O)CC2C(C)(C)CCCC12C (stereo not given)
Answer label: NO
--
Compound: C(CCSC1=NCCN1)CSC1=NCCN1 (tested in a mixture with another compound)
Answer label: NO
--
Compound: [N-]=N[N+]#I1OC(C(F)(F)F)(C(F)(F)F)c2ccccc21
Answer label: NO
--
Compound: NC(=NCc1ccccc1)N/N=C\c1ccnc2ccccc12
Answer label: NO
--
Compound: N#C/C(=C\c1cccc(OCc2ccccc2)c1)c1ccc([N+](=O)[O-])cc1
Answer label: NO
--
Compound: S=C(Nc1ccc(Cl)cc1)SC1CCCCC1
Answer label: NO
--
Compound: COc1ccc2ccc3ccccc3c2c1C=O
Answer label: NO
--
Compound: CCCCOC(=O)N[C@H]1CCc2cc(OC)c(OC)c(OC)c2-c2ccc(SC)c(=O)cc21
Answer label: NO
--
Compound: [O-][n+]1c2ccc(O)cc2nc2ccc(Cl)cc21
Answer label: NO
--
Compound: CC(C)[N+]([O-])(CCCNc1c2ccccc2nc2cccc([N+](=O)[O-])c12)C(C)C
Answer label: NO
--
Compound: CCN(CC)CCC(=O)c1ccc(Oc2ccc(F)cc2)cc1
Answer label: NO
--
Compound: O=C(Nc1ccc(Cl)cc1)OCC#CCCl
Answer label: NO
--
Compound: Clc1cccc(C(Nc2nncs2)Nc2nncs2)c1Cl
Answer label: NO
--
Compound: N#CSc1ccc(S(N)(=O)=O)cc1
Answer label: NO
--
Compound: NNC(=O)CCc1ccc2ccc3ccccc3c2c1
Answer label: NO
--
Compound: CCOC(=O)c1cc(-c2ccc(Cl)cc2)c([N+](=O)[O-])n1C
Answer label: NO
--
Compound: Nc1ccn(C2OC(CO)C3[O][Sn]([c]4ccccc4)([c]4ccccc4)[O]C32)c(=O)n1 (stereo not given)
Answer label: NO
--
Compound: C/C(=N\NC(=S)SCc1ccccc1)c1ccccn1
Answer label: NO
--
Compound: CC(Br)C(=O)c1ccc2cc(Br)c3ccccc3c2c1 (stereo not given)
Answer label: NO
--
Compound: S=C(N/N=C(/c1ccccc1)c1ccccn1)N1CCCCCC1
Answer label: NO
--
Compound: CC(=O)ON1C(=O)c2cccc3cccc(c23)C1=O
Answer label: NO
--
Compound: O=[N+]([O-])c1cc(CCl)ccc1CCl
Answer label: NO
--
Compound: COc1cc2c(c(OC)c1OC)-c1c(cc3c(c1OC)OCO3)CC(C)C(C)(O)C2OC(=O)c1ccccc1 (stereo not given)
Answer label: NO
--
Compound: O=C(CCCN1CCC2(CC1)CC(=O)N(N1CCCCCC1)C2=O)c1ccc(F)cc1
Answer label: NO
--
Compound: O=Nc1cccnc1N=O
Answer label: NO
--
Compound: Nc1ccccc1CC(O)C(=O)O (stereo not given)
Answer label: NO
--
Compound: CCC(=O)Oc1c(Cl)cc(Cl)c2ccccc12
Answer label: NO
--
Compound: CC1C(NNc2ccccc2)Oc2cc3c(cc2C1c1ccccc1O)OCO3 (stereo not given)
Answer label: YES
--
Compound: Cc1nc(-c2ccccc2)c(-c2ccccc2)s1
Answer label: NO
--
Compound: Cc1ccc(C2C(Cl)C(=O)N2n2cnc3ccccc3c2=O)cc1 (stereo not given)
Answer label: NO

----------
Assay details: NCI Yeast Anticancer Drug Screen. Data for the CLN2oe strain (AID 163);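 further: 0% = growth of vehicle-only control cultures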
Details: S. cerevisiae CLN2oe strain, at 33.0 µM, stronger effect = higher value
Compounds without any hit were thinned out: in the full panel of roughly 79,000, 15% have a hit.
Property label: growth inhibition (%)

Compound: O=C1C=CC(=C(c2ccccc2)c2ccccc2)c2ccccc21
Property label: growth inhibition
Readout units: %
Endpoint value: -8
//
Compound: CCCCCCCCCCC(=O)Cl
Property label: growth inhibition
Readout units: %
Endpoint value: -18
//
Compound: N#C/C(=C\c1cccc(OCc2ccccc2)c1)c1ccc([N+](=O)[O-])cc1
Property label: growth inhibition
Readout units: %
Endpoint value: -31
//
Compound: O=C1C2C(C(=O)N1c1ccc(OCc3ccccc3)cc1)C1c3ccccc3C2C2CCCCN21 (stereo unspecified)
Property label: growth inhibition
Readout units: %
Endpoint value: -12
//
Compound: COc1cc2c3c(cccc3c1)C(=O)N(CCN(C)C)C2=O
Property label: growth inhibition
Readout units: %
Endpoint value: 34
//
Compound: COc1ccc2sc3cccc(NCCN(C)C)c3c(=O)c2c1
Property label: growth inhibition
Readout units: %
Endpoint value: -4

----------
Assay details: NCI Yeast Anticancer Drug Screen. Data for the sgs1 strain (AID 173);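 further: 0% = growth of vehicle-only control cultures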
Details: S. cerevisiae sgs1 mutant, at 33.0 µM
Compounds without any hit were thinned out: in the full panel of roughly 79,000, 15% have a hit. Activity calls are given as the source filed them. No stated cut-off is given here; in the data, active means growth inhibition above about 70%; inactive means the rest.
Classes used: Yes for active, No for inactive

Compound: Cc1cccc2c(C(O)CBr)cc(-c3ccc(Cl)cc3)nc12 (stereo unspecified)
Answer label: Yes

Compound: CC(C)C1=CCC2C(=C1)CCC1C(C)(C(=O)O)CCCC21C (stereo unspecified) (tested in a mixture with another compound)
Answer label: No

Compound: CC/C(=C(\c1ccccc1)c1ccc(OCCN(C)C)cc1)c1ccccc1
Answer label: Yes

Compound: NNc1c(F)c(F)cc(F)c1F
Answer label: No

Compound: C[S+](C)C1(c2ccccc2)C(=O)c2ccccc2C1=O
Answer label: No

Compound: CN(C)C[C@H]1CC[C@@H](CN(C)C)C1=O
Answer label: No

Compound: CCNc1nnc(CSc2nc(-c3ccccc3)c(-c3ccccc3)[nH]2)s1
Answer label: Yes

Compound: CC(=O)Nc1ccc(SC(C)=O)cc1
Answer label: No

Compound: FC(F)(F)c1cc(NC(=S)N2c3ccccc3-n3cccc3C2c2cccnc2)cc(C(F)(F)F)c1 (stereo unspecified)
Answer label: No

Compound: CCCCN1C(=O)N(c2ccc(OCC)cc2)C2N(CCCC)C1C(C)(C)C2(C)C (stereo unspecified)
Answer label: No

Compound: c1ccc(-c2ccnc3c2ccc2c(-c4ccccc4)ccnc23)cc1
Answer label: Yes

Compound: C[C@H](CCC(=O)NN)[C@H]1CC[C@H]2[C@@H]3CC[C@@H]4C[C@H](O)CC[C@]4(C)[C@H]3CC[C@]12C
Answer label: No

Compound: CCOC(=O)C1=C(C(=O)c2ccccc2)C(c2ccccc2[N+](=O)[O-])C(C(=O)c2ccccc2)=C(C(=O)OCC)N1
Answer label: No

Compound: CC(=O)N/N=C/C(C)(C)C(C)(C)/C=N/NC(C)=O
Answer label: No

Compound: C#CCCCc1ccccc1
Answer label: No

Compound: Fc1ccc(NC(=S)SCc2ccc3c(c2)OCO3)cc1F
Answer label: Yes

Compound: BrCc1cccc2ccc3cccc(CBr)c3c12
Answer label: No

Compound: Nc1ccc2c(c1)C(=O)c1cccc(N)c1C2=O
Answer label: Yes

Compound: CCCCCCCCCCNC(=O)OCC
Answer label: No

Compound: CN1c2ccc(Cl)cc2C(=O)NC1c1ccc([N+](=O)[O-])s1 (stereo unspecified)
Answer label: Yes

Compound: Oc1ccc(NCn2c(=S)sc3ccccc32)cc1
Answer label: No

Compound: COc1cccc2nc3ccccc3nc12
Answer label: No

Compound: C=C(CN(C)C)C(=O)c1cc(C)ccc1C
Answer label: Yes

Compound: [N-]=N[N+]#I1OC(C(F)(F)F)(C(F)(F)F)c2ccccc21
Answer label: Yes

Compound: O=C1C2CC[C@@H]3C(=O)C(Cl)(Cl)[C@@H]3CCC2C1(Cl)Cl (stereo partly specified)
Answer label: No

Compound: Cc1ccc(S(=O)(=O)NC(=O)NC2=NC(C)(C)N(c3ccc(Cl)c(Cl)c3)C(N)=N2)cc1
Answer label: No

Compound: CCS(=O)(=O)c1ccc(/C=C/C=N/NC(=S)NCC(C)C)cc1
Answer label: No

Compound: CC1=C(C)Cc2c(O)ccc(O)c2C1
Answer label: No

Compound: CC[n+]1ccc2c(C)c3[nH]c4ccc(O)cc4c3c(C)c2c1
Answer label: No

Compound: O=C(c1cc(Br)ccc1O)c1cc(Br)ccc1O
Answer label: Yes

Compound: CC(=O)SCCC[Si](C)(C)CCCSC(C)=O
Answer label: No

Compound: Cc1cc(I)ccc1N
Answer label: Yes

Compound: O=C(CCCN1CCC2(CC1)CC(=O)N(N1CCCCCC1)C2=O)c1ccc(F)cc1
Answer label: Yes

Compound: O=[N+]([O-])/C=C/c1ccc2ccccc2c1
Answer label: Yes

Compound: CC(=O)OC1CCC2(C)C(=CCC3C4CCC5(OC6CC(C)CN(C(C)=O)C6C5C)C(C)=C4C(=O)C32)C1 (stereo unspecified)
Answer label: Yes

Compound: CSC(=S)Nc1cccc(C)n1
Answer label: No

Compound: CCOC(=O)C(NC(=O)c1ccccc1)(N1CCN(c2cc3c(cc2F)c(=O)c(C(=O)O)cn3C2CC2)CC1)C(F)(F)F (stereo unspecified)
Answer label: No

Compound: O=C1C=CC(=O)N1c1ccc2c(c1)Cc1cc(NC(=O)C(F)(F)F)ccc1-2
Answer label: Yes

Compound: OC1(c2ccccc2)CSC2=Nc3ccccc3C3CCN1N23 (stereo unspecified)
Answer label: No

Compound: CC(=O)Oc1cc(-c2cc(OC(C)=O)c(OC(C)=O)c3ccccc23)c2ccccc2c1OC(C)=O
Answer label: No

Compound: O=CNc1ccc2c(c1)C(=O)c1ccccc1-2
Answer label: No

Compound: COc1ccc2c(c1)C(=O)c1ccccc1C2
Answer label: No

Compound: CN(C)CCn1c2c3ccccc3ccc2c2oc(=O)c3ccccc3c21
Answer label: Yes

Compound: O=C(O)c1ccccc1-c1ccccc1C(=O)Nc1ccc2c(c1)Cc1ccccc1-2
Answer label: No

Compound: COc1ccc(N=C2C(=O)Nc3ccc(Br)cc32)cc1
Answer label: No

Compound: O=c1ssc2ncccc12
Answer label: Yes

// provenance: PubChem BioAssay (NCI)
